- System: DUBCA-hCx43 cells
- assay_method_text: MTT cell viability assay for CC10 determination, 24 h drug exposure
- measurement_setup: 24 h exposure, extrapolated from concentration-response curves
// CC10 (concentration inducing 10% cell death) lookup, one value per entry
Express the result in µM but write the number alone.

For orientation, consider the following solved cases.
• CC(C)c1nc(CN(C)C(=O)N[C@H](C(=O)N[C@@H](Cc2ccccc2)C[C@H](O)[C@H](Cc2ccccc2)NC(=O)OCc2cncs2)C(C)C)cs1 = 16
• CCC(CC)COC(=O)[C@H](C)N[P@](=O)(OC[C@H]1O[C@@](C#N)(c2ccc3c(N)ncnn23)[C@H](O)[C@@H]1O)Oc1ccccc1 = 50
• CC[C@H]1OC(=O)[C@H](C)[C@@H](O[C@H]2C[C@@](C)(OC)[C@@H](O)[C@H](C)O2)[C@H](C)[C@@H](O[C@@H]2O[C@H](C)C[C@H](N(C)C)[C@H]2O)[C@](C)(O)C[C@@H](C)CN(C)[C@H](C)[C@@H](O)[C@]1(C)O [Azithromycin (dihydrate), Azithromycin] = 17
• NC(=O)c1ncn([C@@H]2O[C@H](CO)[C@@H](O)[C@H]2O)n1 = 10
• CCN(CCO)CCCC(C)Nc1ccnc2cc(Cl)ccc12 (centres unmarked) [Hydroxychloroquine (sulphate), Hydroxychloroquine] = 12.5

For the next question, use this molecule.
Prompt: Report CC10 (concentration inducing 10% cell death) for Cc1cccc(C)c1OCC(=O)N[C@@H](Cc1ccccc1)[C@@H](O)C[C@H](Cc1ccccc1)NC(=O)[C@H](C(C)C)N1CCCNC1=O
Completion: 19
